Tested on: NPC intracellular cholesterol transporter 1 (Homo sapiens), O15118 [I1061T]
Test Method Notes: Chaperone activity at FLAG/GFP-tagged NPC1 I1061T mutant (unknown origin) expressed in HEK293 cells assessed as increase in localization of protein mutant in late endosomes at 30 uM after 24 hrs by Hoechst 33342 staining based fluorescence microscopic analysis
Format: cell-based
Calls of active or inactive are those of the source. The rule behind the calls is not given here.
Metric: Activity

{"Mol Smiles": "CCCCn1c(=O)c2ccccc2c2cc(C(F)(F)F)ccc21", "Observed Value": "inactive"}
{"Mol Smiles": "O=S(=O)(c1ccccc1)N(CC(F)(F)F)c1ccc(C(O)(C(F)(F)F)C(F)(F)F)cc1", "Observed Value": "inactive"}
{"Mol Smiles": "CCCCN1C(=O)CCc2cc(C(N)=O)ccc21", "Observed Value": "inactive"}
{"Mol Smiles": "CCCCn1c(=O)c2ccccc2c2cc(C(=O)NC3CCCCC3)ccc21", "Observed Value": "inactive"}
{"Mol Smiles": "CCCCn1c(=O)c2ccccc2c2cc(C(=O)NC3CCCC3)ccc21", "Observed Value": "inactive"}
{"Mol Smiles": "CCCCn1c(=O)c2ccccc2c2cc(OC(=O)N3CCOCC3)ccc21", "Observed Value": "inactive"}
{"Mol Smiles": "CCCCn1c(=O)c2ccccc2c2cc(C)ccc21", "Observed Value": "inactive"}
{"Mol Smiles": "CCCCn1c(=O)c2ccccc2c2cc(C(=O)NCc3ccccc3)ccc21", "Observed Value": "inactive"}
{"Mol Smiles": "CCCCn1c(=O)c2ccccc2c2cc(N)ccc21", "Observed Value": "inactive"}
{"Mol Smiles": "CCCCn1c(=O)c2ccccc2c2cc(C(=O)NC(C)C)ccc21", "Observed Value": "inactive"}
{"Mol Smiles": "CCCCn1c(=O)c2ccccc2c2cc(C(O)(C(F)(F)F)C(F)(F)F)ccc21", "Observed Value": "inactive"}
{"Mol Smiles": "CCCC(=O)N1CC2=C(CCCC2)c2cc(C(N)=O)ccc21", "Observed Value": "inactive"}
{"Mol Smiles": "CCCCn1c(=O)c2ccccc2c2cc(F)ccc21", "Observed Value": "inactive"}
{"Mol Smiles": "CCCCn1c(=O)c2ccccc2c2cc(NC(=O)C(F)(F)F)ccc21", "Observed Value": "inactive"}
{"Mol Smiles": "CCCCn1c(=O)c2ccccc2c2cc(C(=O)NC3CC3)ccc21", "Observed Value": "inactive"}
{"Mol Smiles": "CCCCn1c(=O)c2ccccc2c2cc(C(=O)O)ccc21", "Observed Value": "inactive"}
{"Mol Smiles": "CCCCn1c(=O)c2ccccc2c2cc(C(=O)N3CCCC3)ccc21", "Observed Value": "inactive"}
{"Mol Smiles": "CCCCn1c(=O)c2ccccc2c2cc(C(=O)NC(C)(C)C)ccc21", "Observed Value": "inactive"}
{"Mol Smiles": "CCCCn1c(=O)c2ccccc2c2ccccc21", "Observed Value": "inactive"}
{"Mol Smiles": "CCCCN1C(=O)c2ccccc2Oc2cc(C(N)=O)ccc21", "Observed Value": "inactive"}
{"Mol Smiles": "CCCCn1c(=O)c2ccccc2c2cc(C(=O)N3CCOCC3)ccc21", "Observed Value": "inactive"}
{"Mol Smiles": "CCCCNC(=O)c1ccccc1-c1cccc(C(N)=O)c1", "Observed Value": "inactive"}
{"Mol Smiles": "CCCCn1c(=O)c2ccccc2c2cc(N(C)C(C)=O)ccc21", "Observed Value": "inactive"}
{"Mol Smiles": "CCCCn1c(=O)c2c(c3cc(C(N)=O)ccc31)CCC2", "Observed Value": "inactive"}
